# assayed.target: Jak2 (UniProt O60674)
# Sequence (O60674 whole entry, looked up): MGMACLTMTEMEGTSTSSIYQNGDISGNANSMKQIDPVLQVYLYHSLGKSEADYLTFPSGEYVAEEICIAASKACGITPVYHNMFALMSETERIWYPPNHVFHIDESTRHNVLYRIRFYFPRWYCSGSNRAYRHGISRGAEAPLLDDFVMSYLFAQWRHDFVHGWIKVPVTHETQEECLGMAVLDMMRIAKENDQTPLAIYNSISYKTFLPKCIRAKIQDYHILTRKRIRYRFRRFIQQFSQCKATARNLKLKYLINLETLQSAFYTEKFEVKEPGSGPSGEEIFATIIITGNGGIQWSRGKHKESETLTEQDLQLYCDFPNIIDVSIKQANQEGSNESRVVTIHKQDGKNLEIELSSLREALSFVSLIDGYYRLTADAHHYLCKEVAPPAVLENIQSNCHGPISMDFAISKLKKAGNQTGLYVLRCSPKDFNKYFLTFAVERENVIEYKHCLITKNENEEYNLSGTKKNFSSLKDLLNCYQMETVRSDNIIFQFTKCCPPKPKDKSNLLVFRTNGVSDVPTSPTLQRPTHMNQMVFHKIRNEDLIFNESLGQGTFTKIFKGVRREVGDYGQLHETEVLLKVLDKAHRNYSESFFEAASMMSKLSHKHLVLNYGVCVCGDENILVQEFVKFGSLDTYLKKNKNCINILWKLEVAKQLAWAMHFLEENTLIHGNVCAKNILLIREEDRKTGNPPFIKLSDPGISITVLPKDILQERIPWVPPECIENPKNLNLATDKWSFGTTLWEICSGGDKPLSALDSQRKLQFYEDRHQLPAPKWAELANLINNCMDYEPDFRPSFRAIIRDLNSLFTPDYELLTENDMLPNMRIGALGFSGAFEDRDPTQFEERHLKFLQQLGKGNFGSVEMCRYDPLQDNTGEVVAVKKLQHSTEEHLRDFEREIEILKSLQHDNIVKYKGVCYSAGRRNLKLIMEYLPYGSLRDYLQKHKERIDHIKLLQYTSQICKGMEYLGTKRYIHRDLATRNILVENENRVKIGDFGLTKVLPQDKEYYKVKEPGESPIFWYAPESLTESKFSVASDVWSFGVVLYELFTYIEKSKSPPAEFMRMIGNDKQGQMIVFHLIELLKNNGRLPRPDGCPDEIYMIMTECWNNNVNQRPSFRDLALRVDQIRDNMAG
# experiment.description: phosphorylation enrichment, bacterial display (enrichment ratio); higher = better substrate or ligand; peptides without Tyr show the background;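 further: 11-residue human phosphosite peptides and single-mutation variants displayed on the E. coli surface, counted by deep sequencing, each peptide's frequency after selection divided by its frequency in the unselected input library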;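 further: frequency after pTyr selection over input frequency; kinase dosed for 20-30% of maximal phosphorylation in three min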
Cut-off 0.7 on phosphorylation enrichment, inclusive. At or above means T; below means F.

[[record]]
seq_text = "EARRVYRDIIH [ALDH5A1_Y175_G176R]"
assayed_target = "Jak2 (UniProt O60674)"
category_label = "F"

[[record]]
seq_text = "RPSRQYATRDV [SCAMP3_Y35_L38R]"
assayed_target = "Jak2 (UniProt O60674)"
category_label = "F"

[[record]]
seq_text = "PVDVAYRRGYF [PLEC_Y2967]"
assayed_target = "Jak2 (UniProt O60674)"
category_label = "F"

[[record]]
seq_text = "FSCLPYRRLAY [SLC52A2_Y305_G306R]"
assayed_target = "Jak2 (UniProt O60674)"
category_label = "T"

[[record]]
seq_text = "GDFFRYLAEVA [YWHAG_Y133_YF]"
assayed_target = "Jak2 (UniProt O60674)"
category_label = "T"

[[record]]
seq_text = "WPQKLYNNFVN [MYO5C_Y526_L522P]"
assayed_target = "Jak2 (UniProt O60674)"
category_label = "T"

[[record]]
seq_text = "AIFEGYALPHA [ACTC1_Y171_P166A_YF]"
assayed_target = "Jak2 (UniProt O60674)"
category_label = "F"

[[record]]
seq_text = "VCHELYNAIRD [PBRM1_Y54_T56A]"
assayed_target = "Jak2 (UniProt O60674)"
category_label = "T"

[[record]]
seq_text = "MAALSYVSEIG [BPIFB2_Y36_K31M]"
assayed_target = "Jak2 (UniProt O60674)"
category_label = "T"

[[record]]
seq_text = "NDKLCYEVSSP [CDH13_Y66_R65C]"
assayed_target = "Jak2 (UniProt O60674)"
category_label = "T"

[[record]]
seq_text = "ISISPYPAILH [IFT80_Y588_T586S]"
assayed_target = "Jak2 (UniProt O60674)"
category_label = "T"


====

# assayed.target: Hck (UniProt P08631)
# Sequence (P08631 whole entry, looked up): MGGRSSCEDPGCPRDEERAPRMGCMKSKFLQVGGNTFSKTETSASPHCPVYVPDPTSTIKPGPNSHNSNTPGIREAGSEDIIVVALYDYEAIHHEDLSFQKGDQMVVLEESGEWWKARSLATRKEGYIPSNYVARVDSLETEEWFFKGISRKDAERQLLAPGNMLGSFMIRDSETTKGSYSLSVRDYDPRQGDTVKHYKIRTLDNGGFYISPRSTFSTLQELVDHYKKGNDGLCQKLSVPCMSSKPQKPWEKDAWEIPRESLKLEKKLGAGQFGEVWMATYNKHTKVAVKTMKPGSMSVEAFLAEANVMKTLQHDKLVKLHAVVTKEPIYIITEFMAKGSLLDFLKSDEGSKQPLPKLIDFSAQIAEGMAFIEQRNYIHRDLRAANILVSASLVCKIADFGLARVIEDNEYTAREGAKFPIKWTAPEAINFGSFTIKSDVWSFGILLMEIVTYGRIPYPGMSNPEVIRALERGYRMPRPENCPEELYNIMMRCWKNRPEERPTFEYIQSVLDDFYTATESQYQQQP
# experiment.description: phosphorylation enrichment, bacterial display (enrichment ratio); higher = better substrate or ligand; peptides without Tyr show the background
The reader will find reported phosphorylation enrichment values listed item by item below.
measurement.kind: phosphorylation enrichment

[[record]]
seq_text = "QTPVLYAMLDH [MPZ_Y220]"
result_value = 7.14

[[record]]
seq_text = "KNKNRYKNILP [PTPN11_Y279]"
result_value = 0.851

[[record]]
seq_text = "LGMSQYFRLFN [CPT2_Y217_D213G]"
result_value = 0.64

[[record]]
seq_text = "NTYEKYWPFYQ [GATM_Y103]"
result_value = 4.39

[[record]]
seq_text = "GEKKAYVRLAP [RPL23A_Y137]"
result_value = 0.337

[[record]]
seq_text = "YSMGCYEIYLG [HMGCL_Y198_S201Y]"
result_value = 4.95

[[record]]
seq_text = "WGLRSYYETSK [MAGED2_Y448]"
result_value = 0.448

[[record]]
seq_text = "EVASVYESYQP [MAVS_Y92_Q93E]"
result_value = 6.67

[[record]]
seq_text = "TNYSLYLRSLE [MTM1_Y71_R69S]"
result_value = 0.601

[[record]]
seq_text = "IRQDHYESLKE [MTR_Y921]"
result_value = 0.594

[[record]]
seq_text = "IFCIQYNIRAF [MYH4_Y820]"
result_value = 0.608

[[record]]
seq_text = "DKPENYRRLDI [VHL_Y175_V170D]"
result_value = 0.442

[[record]]
seq_text = "PLLEFYWDIFT [CDAN1_Y713_R714W_YF]"
result_value = 0.458

[[record]]
seq_text = "GLAKEYTDPET [CSNK1G2_Y195_I196T]"
result_value = 0.579

[[record]]
seq_text = "LSGVIYVILGK [PMP22_Y153_R157G]"
result_value = 0.885

[[record]]
seq_text = "PRLLRYLQLDF [ASB10_Y457]"
result_value = 0.65

[[record]]
seq_text = "SIKDKYLTALY [KCNH2_Y611_V612L]"
result_value = 0.651

[[record]]
seq_text = "MSDVPYVMNRG [ACAT1_Y161_N158D]"
result_value = 0.358

[[record]]
seq_text = "EFNLMYDGTKE [IRF6_Y97]"
result_value = 0.595

[[record]]
seq_text = "GEHSIYSTVNN [CD55_Y266_C267S]"
result_value = 10.9

[[record]]
seq_text = "LEHCQYVTEKV [ALDOB_Y204]"
result_value = 0.839

[[record]]
seq_text = "TLNVRHESVQA [CEACAM7_Y236_Y236H]"
result_value = 0.366

[[record]]
seq_text = "NTGDYYDLYGG [PTPN11_Y63]"
result_value = 5.35

[[record]]
seq_text = "GGSTFYIDTNA [ACTL6A_Y69_P66S_YF]"
result_value = 0.461

[[record]]
seq_text = "DDFNLYINVKL [MTHFD1_Y52_S49F]"
result_value = 0.558

[[record]]
seq_text = "GVVVPYEPPEV [TP53_Y220_S215G]"
result_value = 0.41

[[record]]
seq_text = "HDRNTYEKFLE [TF_Y666_G671E_YF]"
result_value = 0.491

[[record]]
seq_text = "QLQTTYPSSDN [MAX_Y115_N114T]"
result_value = 0.474

[[record]]
seq_text = "PSQRRYLYYYS [PTEN_Y174_V175L]"
result_value = 0.737

[[record]]
seq_text = "TEQDPYNNIVR [MMUT_Y364]"
result_value = 0.555

[[record]]
seq_text = "IALNSCHSRNC [IFNGR1_Y397_Y397C]"
result_value = 0.358

[[record]]
seq_text = "CASQLYPRHKH [DCTN4_Y263]"
result_value = 0.483

[[record]]
seq_text = "DLFRLYICVKE [ARID1B_Y1091_V1092I]"
result_value = 0.572

[[record]]
seq_text = "SHTPSYCDESL [RITA1_Y109]"
result_value = 0.405

[[record]]
seq_text = "AAVDTYCRHNF [HLA-DRB1_Y107_YF]"
result_value = 0.501

[[record]]
seq_text = "SGIYQYSIAKF [FOXL2_Y83_I84S]"
result_value = 5.59

[[record]]
seq_text = "RIGRKYKKVRF [F8_Y442]"
result_value = 0.356

[[record]]
seq_text = "KDHPDYEFQPR [SOX9_Y172_K173E_YF]"
result_value = 0.504

[[record]]
seq_text = "QFRFIYMAVQH [PTPN11_Y515_YF]"
result_value = 1.42

[[record]]
seq_text = "LLKAKYELLNA [POLR3A_Y714]"
result_value = 0.496

[[record]]
seq_text = "IVRSLYEDVED [VHL_Y185_L188V]"
result_value = 0.526

[[record]]
seq_text = "GREFIYVDPMQ [PDGFRA_Y574_H570R_YF]"
result_value = 1.2

[[record]]
seq_text = "LCHELYNTIRD [PBRM1_Y54_V49L]"
result_value = 6.12

[[record]]
seq_text = "ALHHPYGCDVE [ABL2_Y80_R78H]"
result_value = 0.541

[[record]]
seq_text = "VVFIKYLPEWT [PSEN1_Y240_L235V]"
result_value = 0.44

[[record]]
seq_text = "SSKILYHIIKG [CDH17_Y489]"
result_value = 0.655

[[record]]
seq_text = "LEKISYVYMKR [SSX7_Y48]"
result_value = 1.18

[[record]]
seq_text = "LENSTYQYIRV [CRB1_Y760]"
result_value = 10.9

[[record]]
seq_text = "VIGRMYDFHVL [RPF2_Y109_YF]"
result_value = 0.6

[[record]]
seq_text = "KNKNRSKNILP [PTPN11_Y279_Y279S]"
result_value = 0.561

[[record]]
seq_text = "KILAKYLLETS [NAMPT_Y175]"
result_value = 0.368

[[record]]
seq_text = "VHKKGYNKLNQ [ZNF676_Y98_E96K]"
result_value = 0.43

[[record]]
seq_text = "REVVNYVQKRN [RMI1_Y450]"
result_value = 0.696

[[record]]
seq_text = "KSPDSYQKILL [ATM_Y1415]"
result_value = 0.395

[[record]]
seq_text = "KKHIPYKEHKS [CSNK1G1_Y205_R206K]"
result_value = 0.842

[[record]]
seq_text = "YVGGFYGGCNE [CTSC_Y352]"
result_value = 0.984

[[record]]
seq_text = "AAGGRYYGLVG [HARS1_Y363_D364Y]"
result_value = 0.715

[[record]]
seq_text = "KIEGVYARDET [RPL35A_Y34]"
result_value = 0.586

